- assay context: in ethanol, 303.15 K
reported metric: solubility (mole fraction)
One number for each entry.

[ask] Return reported solubility (mole fraction); argument: O.O=C([O-])[C@H](O)[C@@H](O)[C@H](O)[C@H](O)CO.O=C([O-])[C@H](O)[C@@H](O)[C@H](O)[C@H](O)CO.[Ca+2]
[reply] 1.99e-05

---

- assay context: in methanol, 288.15 K
reported metric: solubility (mole fraction)

[ask] Return reported solubility (mole fraction); argument: O.O=C([O-])[C@H](O)[C@@H](O)[C@H](O)[C@H](O)CO.O=C([O-])[C@H](O)[C@@H](O)[C@H](O)[C@H](O)CO.[Ca+2]
[reply] 1.46e-05

---

- assay context: in water, 279.65 K
reported metric: solubility (mole fraction)
Numbers only.

[ask] Return reported solubility (mole fraction); argument: O.O=C([O-])[C@H](O)[C@@H](O)[C@H](O)[C@H](O)CO.O=C([O-])[C@H](O)[C@@H](O)[C@H](O)[C@H](O)CO.[Ca+2]
[reply] 0.000997

---

- assay context: in water, 308.15 K
reported metric: solubility (mole fraction)

[ask] Return reported solubility (mole fraction); argument: O.O=C([O-])[C@H](O)[C@@H](O)[C@H](O)[C@H](O)CO.O=C([O-])[C@H](O)[C@@H](O)[C@H](O)[C@H](O)CO.[Ca+2]
[reply] 0.00199

---

- assay context: in acetonitrile, 288.15 K
reported metric: solubility (mole fraction)
Answers are plain numbers.

[ask] Return reported solubility (mole fraction); argument: O.O=C([O-])[C@H](O)[C@@H](O)[C@H](O)[C@H](O)CO.O=C([O-])[C@H](O)[C@@H](O)[C@H](O)[C@H](O)CO.[Ca+2]
[reply] 5.33e-06

---

- assay context: in ethanol, 318.15 K
reported metric: solubility (mole fraction)
Numbers only.

[ask] Return reported solubility (mole fraction); argument: O.O=C([O-])[C@H](O)[C@@H](O)[C@H](O)[C@H](O)CO.O=C([O-])[C@H](O)[C@@H](O)[C@H](O)[C@H](O)CO.[Ca+2]
[reply] 3.04e-05

---

- assay context: in ethanol, 313.65 K
reported metric: solubility (mole fraction)

[ask] Return reported solubility (mole fraction); argument: O.O=C([O-])[C@H](O)[C@@H](O)[C@H](O)[C@H](O)CO.O=C([O-])[C@H](O)[C@@H](O)[C@H](O)[C@H](O)CO.[Ca+2]
[reply] 2.75e-05

---

- assay context: in water, 318.15 K
reported metric: solubility (mole fraction)
One number for each entry.

[ask] Return reported solubility (mole fraction); argument: O.O=C([O-])[C@H](O)[C@@H](O)[C@H](O)[C@H](O)CO.O=C([O-])[C@H](O)[C@@H](O)[C@H](O)[C@H](O)CO.[Ca+2]
[reply] 0.00269

---

- assay context: in methanol, 283.15 K
reported metric: solubility (mole fraction)
Answers are plain numbers.

[ask] Return reported solubility (mole fraction); argument: O.O=C([O-])[C@H](O)[C@@H](O)[C@H](O)[C@H](O)CO.O=C([O-])[C@H](O)[C@@H](O)[C@H](O)[C@H](O)CO.[Ca+2]
[reply] 1.26e-05

---

- assay context: in methanol, 293.15 K
reported metric: solubility (mole fraction)

[ask] Return reported solubility (mole fraction); argument: O.O=C([O-])[C@H](O)[C@@H](O)[C@H](O)[C@H](O)CO.O=C([O-])[C@H](O)[C@@H](O)[C@H](O)[C@H](O)CO.[Ca+2]
[reply] 1.77e-05

---

- assay context: in n-propanol, 303.15 K
reported metric: solubility (mole fraction)
Numbers only.

[ask] Return reported solubility (mole fraction); argument: O.O=C([O-])[C@H](O)[C@@H](O)[C@H](O)[C@H](O)CO.O=C([O-])[C@H](O)[C@@H](O)[C@H](O)[C@H](O)CO.[Ca+2]
[reply] 1.62e-05

---

- assay context: in acetonitrile, 318.15 K
reported metric: solubility (mole fraction)
Answers are plain numbers.

[ask] Return reported solubility (mole fraction); argument: O.O=C([O-])[C@H](O)[C@@H](O)[C@H](O)[C@H](O)CO.O=C([O-])[C@H](O)[C@@H](O)[C@H](O)[C@H](O)CO.[Ca+2]
[reply] 2.39e-05

---

- assay context: in ethanol, 298.15 K
reported metric: solubility (mole fraction)
One number for each entry.

[ask] Return reported solubility (mole fraction); argument: O.O=C([O-])[C@H](O)[C@@H](O)[C@H](O)[C@H](O)CO.O=C([O-])[C@H](O)[C@@H](O)[C@H](O)[C@H](O)CO.[Ca+2]
[reply] 1.73e-05

---

- assay context: in n-propanol, 288.15 K
reported metric: solubility (mole fraction)
Numbers only.

[ask] Return reported solubility (mole fraction); argument: O.O=C([O-])[C@H](O)[C@@H](O)[C@H](O)[C@H](O)CO.O=C([O-])[C@H](O)[C@@H](O)[C@H](O)[C@H](O)CO.[Ca+2]
[reply] 7.78e-06

---

- assay context: in water, 323.15 K
reported metric: solubility (mole fraction)

[ask] Return reported solubility (mole fraction); argument: O.O=C([O-])[C@H](O)[C@@H](O)[C@H](O)[C@H](O)CO.O=C([O-])[C@H](O)[C@@H](O)[C@H](O)[C@H](O)CO.[Ca+2]
[reply] 0.00311

---

- assay context: in n-propanol, 283.15 K
reported metric: solubility (mole fraction)

[ask] Return reported solubility (mole fraction); argument: O.O=C([O-])[C@H](O)[C@@H](O)[C@H](O)[C@H](O)CO.O=C([O-])[C@H](O)[C@@H](O)[C@H](O)[C@H](O)CO.[Ca+2]
[reply] 5.83e-06

---

- assay context: in ethanol, 288.15 K
reported metric: solubility (mole fraction)

[ask] Return reported solubility (mole fraction); argument: O.O=C([O-])[C@H](O)[C@@H](O)[C@H](O)[C@H](O)CO.O=C([O-])[C@H](O)[C@@H](O)[C@H](O)[C@H](O)CO.[Ca+2]
[reply] 1.29e-05

---

- assay context: in ethanol, 293.15 K
reported metric: solubility (mole fraction)

[ask] Return reported solubility (mole fraction); argument: O.O=C([O-])[C@H](O)[C@@H](O)[C@H](O)[C@H](O)CO.O=C([O-])[C@H](O)[C@@H](O)[C@H](O)[C@H](O)CO.[Ca+2]
[reply] 1.51e-05

---

- assay context: in acetonitrile, 308.65 K
reported metric: solubility (mole fraction)

[ask] Return reported solubility (mole fraction); argument: O.O=C([O-])[C@H](O)[C@@H](O)[C@H](O)[C@H](O)CO.O=C([O-])[C@H](O)[C@@H](O)[C@H](O)[C@H](O)CO.[Ca+2]
[reply] 1.64e-05

---

- assay context: in water, 299.15 K
reported metric: solubility (mole fraction)
Answers are plain numbers.

[ask] Return reported solubility (mole fraction); argument: O.O=C([O-])[C@H](O)[C@@H](O)[C@H](O)[C@H](O)CO.O=C([O-])[C@H](O)[C@@H](O)[C@H](O)[C@H](O)CO.[Ca+2]
[reply] 0.00146

---

- assay context: in methanol, 298.15 K
reported metric: solubility (mole fraction)
Give bare numbers.

[ask] Return reported solubility (mole fraction); argument: O.O=C([O-])[C@H](O)[C@@H](O)[C@H](O)[C@H](O)CO.O=C([O-])[C@H](O)[C@@H](O)[C@H](O)[C@H](O)CO.[Ca+2]
[reply] 1.95e-05

---

- assay context: in methanol, 318.15 K
reported metric: solubility (mole fraction)
Answers are plain numbers.

[ask] Return reported solubility (mole fraction); argument: O.O=C([O-])[C@H](O)[C@@H](O)[C@H](O)[C@H](O)CO.O=C([O-])[C@H](O)[C@@H](O)[C@H](O)[C@H](O)CO.[Ca+2]
[reply] 3.5e-05

---

- assay context: in methanol, 303.15 K
reported metric: solubility (mole fraction)
Give bare numbers.

[ask] Return reported solubility (mole fraction); argument: O.O=C([O-])[C@H](O)[C@@H](O)[C@H](O)[C@H](O)CO.O=C([O-])[C@H](O)[C@@H](O)[C@H](O)[C@H](O)CO.[Ca+2]
[reply] 2.34e-05

---

- assay context: in acetonitrile, 303.15 K
reported metric: solubility (mole fraction)
Answers are plain numbers.

[ask] Return reported solubility (mole fraction); argument: O.O=C([O-])[C@H](O)[C@@H](O)[C@H](O)[C@H](O)CO.O=C([O-])[C@H](O)[C@@H](O)[C@H](O)[C@H](O)CO.[Ca+2]
[reply] 1.24e-05

---

- assay context: in ethanol, 279.15 K
reported metric: solubility (mole fraction)

[ask] Return reported solubility (mole fraction); argument: O.O=C([O-])[C@H](O)[C@@H](O)[C@H](O)[C@H](O)CO.O=C([O-])[C@H](O)[C@@H](O)[C@H](O)[C@H](O)CO.[Ca+2]
[reply] 9.52e-06
